measurement notes: Phase I study CXR1002-001: plasma pharmacokinetics (LC-MS/MS)
Type: in vivo, human
setup conditions: human, plasma, oral, 950 mg, Patient 031, 950 mg, person, plasma, 528 hr (Day 23); read-out: Concentration
readout: concentration at 528 h

Challenge: Input O=C(O)C(F)(F)C(F)(F)C(F)(F)C(F)(F)C(F)(F)C(F)(F)C(F)(F)F , output reported concentration at 528 h.
Response given: 958 µM

====

measurement notes: Phase I study CXR1002-001: plasma pharmacokinetics (LC-MS/MS)
Format: in vivo, human
setup conditions: human, plasma, oral, 450 mg, Patient 016 Dose 450 mg; 172 hr; read-out: Concentration
readout: concentration at 172 h
Remember to follow the number with its unit.

Challenge: Input O=C(O)C(F)(F)C(F)(F)C(F)(F)C(F)(F)C(F)(F)C(F)(F)C(F)(F)F , output reported concentration at 172 h.
Response given: 244 µM
